Ref: ChEMBL document CHEMBL2311539

assay-overview: Inhibition of pig GSK-3 by radiometric protein kinase assay
Set-up: species or system Sus scrofa
Here, each record is paired with measured IC50 data.

{"compound-structure-string": "N#Cc1c(N)nc2sc(C(=O)c3ccc(C(F)(F)F)cc3)c(N)c2c1-c1ccccc1I", "readout": "IC50", "val": "> 10 µM"}
{"compound-structure-string": "N#Cc1c(N)nc2sc(C(=O)c3cccc(Cl)c3)c(N)c2c1-c1ccccc1Br", "readout": "IC50", "val": "> 10 µM"}
{"compound-structure-string": "N#Cc1sc2nc(N)c(C#N)c(-c3ccccc3I)c2c1N", "readout": "IC50", "val": "> 10 µM"}

Query (compound): N#Cc1sc2nc(N)c(C#N)c(-c3c[nH]c4ccccc34)c2c1N ; field requested: IC50
3.5 µM

For N#Cc1c(N)nc2sc(C(=O)Nc3ccc(Cl)cc3)c(N)c2c1-c1ccccc1Cl then?
> 10 µM

Continue with N#Cc1sc2nc(N)c(C#N)c(-c3ccccc3Br)c2c1N
1.3 µM

And the next one, COc1ccccc1-c1c(C#N)c(N)nc2sc(C(=O)c3ccc(C(F)(F)F)cc3)c(N)c12 ?
> 10 µM
